This collection of values is drawn from patent US20250051338A1.

- tested-system: UniProt P29597
- Sequence (P29597 whole entry): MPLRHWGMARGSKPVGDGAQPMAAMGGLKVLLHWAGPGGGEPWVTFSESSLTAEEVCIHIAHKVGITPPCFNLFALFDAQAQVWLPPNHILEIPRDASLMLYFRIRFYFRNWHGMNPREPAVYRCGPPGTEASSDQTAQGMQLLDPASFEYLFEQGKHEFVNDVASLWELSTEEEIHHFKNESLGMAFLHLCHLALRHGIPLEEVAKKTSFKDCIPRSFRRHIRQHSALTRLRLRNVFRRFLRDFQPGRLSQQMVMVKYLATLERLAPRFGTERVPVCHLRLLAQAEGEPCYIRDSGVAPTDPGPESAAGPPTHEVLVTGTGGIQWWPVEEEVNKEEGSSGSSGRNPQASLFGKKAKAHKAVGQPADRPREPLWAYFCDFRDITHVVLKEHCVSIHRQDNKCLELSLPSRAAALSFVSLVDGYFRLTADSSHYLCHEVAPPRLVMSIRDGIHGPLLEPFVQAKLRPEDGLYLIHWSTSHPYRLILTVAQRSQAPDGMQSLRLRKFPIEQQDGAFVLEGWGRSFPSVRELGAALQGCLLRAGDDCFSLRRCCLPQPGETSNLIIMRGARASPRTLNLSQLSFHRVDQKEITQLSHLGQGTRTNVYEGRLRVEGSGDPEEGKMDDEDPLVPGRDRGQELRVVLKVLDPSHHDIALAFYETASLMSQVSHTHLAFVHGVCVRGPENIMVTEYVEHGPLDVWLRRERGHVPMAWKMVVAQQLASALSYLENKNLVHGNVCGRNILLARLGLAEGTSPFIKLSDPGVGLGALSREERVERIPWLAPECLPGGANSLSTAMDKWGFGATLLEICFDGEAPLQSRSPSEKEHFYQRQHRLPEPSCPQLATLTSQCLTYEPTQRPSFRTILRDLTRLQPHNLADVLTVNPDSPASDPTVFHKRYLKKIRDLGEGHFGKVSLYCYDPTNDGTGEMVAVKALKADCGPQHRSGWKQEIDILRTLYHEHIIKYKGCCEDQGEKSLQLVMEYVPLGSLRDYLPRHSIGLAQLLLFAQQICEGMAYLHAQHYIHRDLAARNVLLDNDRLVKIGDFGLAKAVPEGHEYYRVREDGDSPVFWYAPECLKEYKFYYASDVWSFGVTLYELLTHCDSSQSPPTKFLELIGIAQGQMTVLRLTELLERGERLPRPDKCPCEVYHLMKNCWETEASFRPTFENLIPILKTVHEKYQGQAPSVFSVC
- assay-method-text: TYK2 degradation MSD assay in OCI-LY10 cells
- Format: cell-based
- Set-up: endogenous in cells; host or cells: EBV-B cells
- test-settings: 4 to 24 hours incubation, read-out: TYK2 MSD DC50 rating in OCI-LY10
reported-endpoint: DC50

1. CNc1cc(N2CCc3c(N4CCC(CN5CCN(c6ccc7c(c6)n(C)c(=O)n7C6CCC(=O)NC6=O)CC5)CC4)cccc32)nn2c(C(=O)N[C@@H]3C[C@@H]3F)cnc12 (some centres unmarked); < 1 nM
2. CNc1cc(N2CCc3c(-c4ccc(CN5CCC6(CC5)CCN(c5ccc(-c7ccc8c(c7)n(C)c(=O)n8C7CCC(=O)NC7=O)cc5)CC6)cn4)cccc32)nn2c(C(=O)N[C@@H]3C[C@@H]3F)cnc12 (some centres unmarked); 1 to 10 nM
3. CNc1cc(Nc2cccn(-c3ccc(C(=O)N4CC(N5CCN(c6ccc7c(c6)n(C)c(=O)n7C6CCC(=O)NC6=O)CC5)C4)cn3)c2=O)nn2c(C(=O)N[C@@H]3C[C@@H]3F)cnc12 (some centres unmarked); < 1 nM

Record CNc1cc(Nc2cccc(C3CCN(CCc4cccc5c4n(C)c(=O)n5C4CCC(=O)NC4=O)CC3)c2)nn2c(C(=O)N[C@@H]3C[C@@H]3F)cnc12 (some centres unmarked) , field DC50: > 100 nM

Record CNC(=O)c1cnc(Nc2ccc(CN3CCN(Cc4ccc5c(c4)n(C)c(=O)n5C4CCC(=O)NC4=O)CC3)cn2)cc1Nc1cccc(-c2ncc(F)cn2)c1OC (centres unmarked) , field DC50: > 100 nM

Record CNC(=O)c1cnc(Nc2ccc(C(=O)NCCCCCCCCc3cc(N4CCCC(C(=O)Nc5ccc(=O)n(CC(=O)OC)c5)C4)ccn3)cn2)cc1Nc1cccc(-c2ncc(F)cn2)c1OC (centres unmarked) , field DC50: > 100 nM

Record CNc1cc(Nc2ccccc2C(=O)NCCCCc2cccc3c2n(C)c(=O)n3C2CCC(=O)NC2=O)nn2c(C(=O)N[C@@H]3C[C@@H]3F)cnc12 (some centres unmarked) , field DC50: > 100 nM

Record CNC(=O)c1cnc(Nc2ccc(C(=O)N(C)C3CCN(c4ccc5c(c4)n(C)c(=O)n5C4CCC(=O)NC4=O)CC3)cn2)cc1Nc1ccccc1OC (centres unmarked) , field DC50: > 100 nM

Record CNC1=CC(Nc2cccc(-c3ccc(CN4CCN(c5ccc(-c6cccc7c(N8CCC(=O)NC8=O)cncc67)cc5)CC4)cn3)c2)=NN2C1=NCC2C(=O)N[C@@H]1C[C@@H]1F (some centres unmarked) , field DC50: > 100 nM
